pIC50: −log10 of the molar value.
Reported pIC50 values, Protein kinase C eta type (Homo sapiens, UniProt P24723).
value.type: pIC50

{"smiles.entry": "NCc1ccc2cccc(C3=C(c4c[nH]c5ccccc45)C(=O)NC3=O)c2c1", "assayed.system": "Protein kinase C eta type (Homo sapiens, UniProt P24723)", "observed": "< 6.50"}
{"smiles.entry": "Cn1cc(C2=C(c3c(Cl)ccc4ccc(CN5CCC5)cc34)C(=O)NC2=O)c2ccccc21", "assayed.system": "Protein kinase C eta type (Homo sapiens, UniProt P24723)", "observed": 6.50}
{"smiles.entry": "Cn1cc(C2=C(c3cccc4cc(CN)ccc34)C(=O)NC2=O)c2ccccc21", "assayed.system": "Protein kinase C eta type (Homo sapiens, UniProt P24723)", "observed": 6.51}
{"smiles.entry": "Cc1ccc2ccc(CN)cc2c1C1=C(c2c[nH]c3ccccc23)C(=O)NC1=O", "assayed.system": "Protein kinase C eta type (Homo sapiens, UniProt P24723)", "observed": "< 6.50"}
{"smiles.entry": "CC(=O)N(C)Cc1ccc2ccc(Cl)c(C3=C(c4cn(C)c5ccccc45)C(=O)NC3=O)c2c1", "assayed.system": "Protein kinase C eta type (Homo sapiens, UniProt P24723)", "observed": "< 6.50"}
{"smiles.entry": "Cc1ccc2ccc(CN)cc2c1C1=C(c2cn(C)c3ccccc23)C(=O)NC1=O", "assayed.system": "Protein kinase C eta type (Homo sapiens, UniProt P24723)", "observed": "< 6.50"}
{"smiles.entry": "Cn1cc(C2=C(c3cccc4ccc(CN)cc34)C(=O)NC2=O)c2ccccc21", "assayed.system": "Protein kinase C eta type (Homo sapiens, UniProt P24723)", "observed": "< 6.50"}

These entries and their values trace back to ChEMBL document CHEMBL4002641.
